From: patent US20200171136A1

target: Endoplasmic reticulum aminopeptidase 1 (ERAP1) (UniProt Q9NZ08 1-941, limits assumed); assay: cell-based or functional assay
Sequence (Q9NZ08 whole entry): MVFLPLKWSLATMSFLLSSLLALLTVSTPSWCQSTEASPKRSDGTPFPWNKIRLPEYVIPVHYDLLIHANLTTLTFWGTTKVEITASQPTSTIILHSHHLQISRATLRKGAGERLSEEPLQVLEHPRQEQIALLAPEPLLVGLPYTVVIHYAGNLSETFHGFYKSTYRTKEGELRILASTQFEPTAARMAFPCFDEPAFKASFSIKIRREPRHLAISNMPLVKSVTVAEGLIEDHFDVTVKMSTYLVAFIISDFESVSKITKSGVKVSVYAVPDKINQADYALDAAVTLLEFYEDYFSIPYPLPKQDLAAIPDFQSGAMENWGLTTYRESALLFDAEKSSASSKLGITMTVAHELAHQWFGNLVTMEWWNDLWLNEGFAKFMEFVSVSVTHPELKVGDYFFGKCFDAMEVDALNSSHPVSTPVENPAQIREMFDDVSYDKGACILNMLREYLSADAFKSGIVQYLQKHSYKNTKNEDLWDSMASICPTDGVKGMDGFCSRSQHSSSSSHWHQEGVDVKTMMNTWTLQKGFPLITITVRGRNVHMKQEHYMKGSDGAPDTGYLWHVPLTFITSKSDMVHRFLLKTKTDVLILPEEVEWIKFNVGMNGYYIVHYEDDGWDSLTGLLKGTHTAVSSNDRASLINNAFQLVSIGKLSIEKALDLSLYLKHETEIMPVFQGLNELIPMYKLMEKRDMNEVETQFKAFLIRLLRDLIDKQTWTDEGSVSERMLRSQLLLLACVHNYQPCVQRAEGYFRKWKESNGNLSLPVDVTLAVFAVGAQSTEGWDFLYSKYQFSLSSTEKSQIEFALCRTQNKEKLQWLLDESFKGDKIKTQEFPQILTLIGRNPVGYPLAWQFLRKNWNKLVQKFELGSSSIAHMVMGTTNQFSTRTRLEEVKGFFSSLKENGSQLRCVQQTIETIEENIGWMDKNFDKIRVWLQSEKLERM
Classify: True when formation rate (%) 2 hr later is strictly less than 50%; False when formation rate (%) 2 hr later is not.

>  <binder>
CVLQELNVTV [peptide CVLQELNVTV (SEQ ID NO: 99)]

>  <class name>
False

$$$$

stdin: Item CMVLQELNVTV [peptide CMVLQELNVTV (SEQ ID NO: 94)] : formation rate (%) 2 hr later beneath 50%, strictly?
stdout: True

stdin: Below 50% on formation rate (%) 2 hr later? Entry CLVLQELNVTV [peptide CLVLQELNVTV (SEQ ID NO: 93)]
stdout: True
